# experimental_system: MLLT1 (Homo sapiens)
# Construct: endogenous in cells; host or cells: MV4-11 (ATCC CRL-9591)
# Sequence (Q03111 whole entry): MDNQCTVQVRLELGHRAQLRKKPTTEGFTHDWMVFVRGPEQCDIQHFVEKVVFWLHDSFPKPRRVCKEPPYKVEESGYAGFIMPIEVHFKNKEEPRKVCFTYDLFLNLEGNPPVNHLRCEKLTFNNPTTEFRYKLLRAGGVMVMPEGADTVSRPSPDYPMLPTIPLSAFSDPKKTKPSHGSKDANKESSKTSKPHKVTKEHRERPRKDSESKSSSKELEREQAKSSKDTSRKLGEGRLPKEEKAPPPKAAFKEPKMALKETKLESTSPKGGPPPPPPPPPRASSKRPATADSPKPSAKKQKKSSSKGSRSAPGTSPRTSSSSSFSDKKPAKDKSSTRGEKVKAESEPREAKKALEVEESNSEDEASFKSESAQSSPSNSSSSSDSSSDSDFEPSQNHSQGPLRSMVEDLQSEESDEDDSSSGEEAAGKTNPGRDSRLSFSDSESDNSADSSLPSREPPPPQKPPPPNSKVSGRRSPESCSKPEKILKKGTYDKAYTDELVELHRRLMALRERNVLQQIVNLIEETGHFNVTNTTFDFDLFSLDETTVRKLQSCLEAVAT
# method_notes: MLLT1 degradation assay (JESS automated chemiluminescent detection) in MV4-11 cells
# Assay type: cell-based
# measurement_conditions: 0.01 µM, 24h, with respect to DMSO control
inhibition at 0.01 µM for assorted compounds

>>> measurement("Cc1nn(CCCCCCCCNc2cccc3c2C(=O)N(C2CCC(=O)NC2=O)C3=O)c2cc(C(=O)Nc3cc4[nH]c([C@H]5CCCN5C)cc4cn3)ccc12 (some centres unmarked)")
"50 to 75%"
>>> measurement("Cc1c([C@H]2CCCN2C)[nH]c2cc(NC(=O)c3ccc4c(C)nn(CCCCCCCC#Cc5cccc6c5CN(C5CCC(=O)NC5=O)C6=O)c4c3)ncc12 (some centres unmarked)")
"≥ 75%"
>>> measurement("Cc1c2ccc(C(=O)Nc3cc4[nH]c([C@H]5CCCN5C)cc4cn3)cc2nn1CCCCCCCCNc1cccc2c1C(=O)N(C1CCC(=O)NC1=O)C2=O (some centres unmarked)")
"50 to 75%"
>>> measurement("Cc1nn(CCCCN2CCN(c3ccc4c(c3)C(=O)N(C3CCC(=O)NC3=O)C4=O)CC2)c2cc(C(=O)Nc3cc4[nH]c([C@@H]5CCCN5C)cc4cn3)ccc12 (some centres unmarked)")
"25 to 50%"
>>> measurement("Cc1nn(CCCCCCCCC#Cc2cccc3c2CN(C2CCC(=O)NC2=O)C3=O)c2cc(C(=O)Nc3cc4[nH]c([C@H]5CCCN5C)cc4cn3)ccc12 (some centres unmarked)")
"≥ 75%"

Ask: I'd like to know its inhibition at 0.01 µM. The compound in question is Cc1nn(CCCCCCCC#Cc2cccc(C3CCC(=O)NC3=O)c2F)c2cc(C(=O)Nc3cc4[nH]c([C@H]5CCCN5C)cc4cn3)ccc12 (some centres unmarked)
Result: 25 to 50%

Ask: I'd like to know its inhibition at 0.01 µM. The compound in question is Cc1nn(CCCCCCCC#Cc2ccc3c(c2)n(C)c(=O)n3C2CCC(=O)NC2=O)c2cc(C(=O)Nc3cc4[nH]c([C@H]5CCCN5C)cc4cn3)ccc12 (some centres unmarked)
Result: ≥ 75%

Ask: I'd like to know its inhibition at 0.01 µM. The compound in question is Cc1nn(CCCCCCC2CCN(c3cccc(C(=O)N[C@H]4CCC(=O)NC4=O)n3)CC2)c2cc(C(=O)Nc3cc4[nH]c([C@H]5CCCN5C)cc4cn3)ccc12
Result: 50 to 75%

Ask: I'd like to know its inhibition at 0.01 µM. The compound in question is Cc1nn(CCCCCC#Cc2cccc3c2n(C)c(=O)n3C2CCC(=O)NC2=O)c2cc(C(=O)Nc3cc4[nH]c([C@H]5CCCN5C)cc4cn3)ccc12 (some centres unmarked)
Result: 50 to 75%

Ask: I'd like to know its inhibition at 0.01 µM. The compound in question is Cc1nn(CCCCCCCC#Cc2cccc3c2CN(C2CCC(=O)NC2=O)C3=O)c2cc(C(=O)Nc3cc4[nH]c([C@H]5CCCN5C)c(C#N)c4cn3)ccc12 (some centres unmarked)
Result: ≥ 75%

Ask: I'd like to know its inhibition at 0.01 µM. The compound in question is Cc1nn(CCCCCCCCNc2cccc3c2C(=O)N(C2CCC(=O)NC2=O)C3=O)c2cc(C(=O)Nc3cc4[nH]c([C@H]5CCCN5C)c(Cl)c4cn3)ccc12 (some centres unmarked)
Result: ≥ 75%

Source listed as patent EP4667466A1.
